SYSTEM NAME: T1, fibroblast activation protein α (FAPα) (UniProt Q12884 26-760, limits assumed)
T1 sequence (looked up): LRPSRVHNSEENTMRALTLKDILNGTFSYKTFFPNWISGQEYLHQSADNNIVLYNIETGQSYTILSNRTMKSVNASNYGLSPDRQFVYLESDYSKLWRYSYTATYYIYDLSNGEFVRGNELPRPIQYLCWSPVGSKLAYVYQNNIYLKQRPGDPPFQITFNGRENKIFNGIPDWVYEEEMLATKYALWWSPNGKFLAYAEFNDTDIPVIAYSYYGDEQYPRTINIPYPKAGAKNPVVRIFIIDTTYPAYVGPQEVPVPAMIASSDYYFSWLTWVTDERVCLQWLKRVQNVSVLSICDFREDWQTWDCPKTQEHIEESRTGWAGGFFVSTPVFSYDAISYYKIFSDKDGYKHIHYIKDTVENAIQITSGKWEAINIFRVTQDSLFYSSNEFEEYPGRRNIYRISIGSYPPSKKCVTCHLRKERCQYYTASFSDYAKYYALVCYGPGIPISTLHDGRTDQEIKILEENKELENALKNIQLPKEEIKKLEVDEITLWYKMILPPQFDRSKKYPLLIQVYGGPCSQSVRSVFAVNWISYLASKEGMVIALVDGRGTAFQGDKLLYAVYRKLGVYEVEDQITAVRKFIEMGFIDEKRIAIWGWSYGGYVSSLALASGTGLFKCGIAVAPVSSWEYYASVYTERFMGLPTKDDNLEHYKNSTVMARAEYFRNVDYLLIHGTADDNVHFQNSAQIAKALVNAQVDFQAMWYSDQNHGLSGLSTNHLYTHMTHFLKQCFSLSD
PROTOCOL DESCRIPTION: fluorescence polarization FAPα binding assay
Starred links: 1 amine or outer side, 2 acyl side, 3 side chain; linkers in the order of their positions; H or OH if unused. Positions of bridges follow the written chain, without caps; N, C: chain ends. No end group written: not given here. TBMB = c1c(C[*:1])cc(C[*:3])cc1C[*:2]
QUANTITY MEASURED: Ki (µM)

1: ACDDCLISMRDACA (linker 2-5-13 via TBMB, all L-amino acids) [A-(SEQ ID NO: 4)-A]
2: ACPPTEYDCLIFFSECA (linker 2-9-16 via TBMB, all L-amino acids; also called CiPPTEYDCiiLIFFSECiii with N- and C-terminal Ala) [A-(SEQ ID NO: 3)-A]
3: ACTDCDTDSLIYCA (linker 2-5-13 via TBMB, all L-amino acids) [A-(SEQ ID NO: 2)-A]
4: ACHSDYLICPYGDFFCA (linker 2-9-16 via TBMB, all L-amino acids; also called CiHSDYLICiiPYGDFFCiii with N- and C-terminal Ala) [A-(SEQ ID NO: 1)-A]
Lab note: order the above by reported Ki, lowest first, highest last. Provide the labels, sequenced as the question asks.
4, 2, 1, 3
